Reported IC50 values follow for various molecules
- target.entity: hAM2 receptor (CALCRL:RAMP3) (Homo sapiens, UniProt O60896+Q16602)
- Construct: expressed in transfected cells; host or cells: GeneBLAzer CALCRL:RAMP3-CRE-bla Freestyle 293F
- Sequence (Q16602 23-461): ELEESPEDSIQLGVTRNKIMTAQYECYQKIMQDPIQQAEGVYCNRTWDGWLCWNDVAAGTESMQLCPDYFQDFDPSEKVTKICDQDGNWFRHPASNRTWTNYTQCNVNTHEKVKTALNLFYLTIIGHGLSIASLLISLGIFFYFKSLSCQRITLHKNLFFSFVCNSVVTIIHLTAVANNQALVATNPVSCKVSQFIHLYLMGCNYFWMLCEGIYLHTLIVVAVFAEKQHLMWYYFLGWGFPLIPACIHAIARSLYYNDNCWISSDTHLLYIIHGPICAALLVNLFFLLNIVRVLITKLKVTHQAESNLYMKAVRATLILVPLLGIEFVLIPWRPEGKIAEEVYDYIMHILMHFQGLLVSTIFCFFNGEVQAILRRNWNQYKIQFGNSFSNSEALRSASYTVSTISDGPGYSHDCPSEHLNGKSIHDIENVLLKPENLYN
- Sequence (O60896 24-148): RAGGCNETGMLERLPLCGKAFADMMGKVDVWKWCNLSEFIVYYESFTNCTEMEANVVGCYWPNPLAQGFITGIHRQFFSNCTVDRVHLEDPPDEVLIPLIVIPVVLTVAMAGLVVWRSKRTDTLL
- test.name: AM2 receptor antagonist activity measured by cAMP assay (HTRF)
- Type: cell-based
- condition.description: GeneBLAzer CALCRL:RAMP3-CRE-bla Freestyle 293F cells; agonist human adrenomedullin; read-out: hAM2-R IC50 Ave
Numbered stars: 1 amine (or outer) side, 2 acyl side, 3 side chain; on linkers, the order of the positions; unused ones are H or OH. Bridge positions count the residues as written; N and C are the ends. Square brackets hold non-standard residues; d marks the D form. Peptide text beside a SMILES is read from it. * marks the point of attachment. Phe(3-CH2NH2) = O=C([C@H](Cc1cccc(CN[*:3])c1)N[*:1])[*:2]; Phe(3-CONH2) = NC(=O)c1cccc(C[C@H](N)C(=O)O)c1; Phe(2-CONH2) = NC(=O)c1ccccc1C[C@H](N)C(=O)O; X5 = O=C([C@H](Cc1ccc(CO)cc1)N[*:1])[*:2]; Orn(iPr) = CC(C)NCCC[C@H](N)C(=O)O; Benzoyl(4-F) = O=C(c1ccc(F)cc1)*; Oxazole2carbonyl = O=C(c1ncco1)*; 3Pal = N[C@@H](Cc1cccnc1)C(=O)O; Picolinoyl = O=C(c1ccccn1)*; ΔPro = O=C(O)[C@@H]1C=CCN1; Dap = NC[C@H](N)C(=O)O; X6 = O=C(c1ccncn1)*
Numbers only here, please. The scale is µM.

CC(C)NCCC[C@@H]1NC(=O)[C@@H](NC(=O)[C@H](Cc2ccc(O)cc2)NC(=O)[C@H](NC(=O)c2ncco2)C(C)C)CSSC[C@@H](C(=O)N[C@@H](Cc2cccnc2)C(N)=O)NC(=O)[C@H](Cc2ccc(CO)cc2)NC(=O)[C@@H]2C=CCN2C(=O)CNC(=O)[C@H](C(C)C)NC(=O)[C@H](CC(=O)O)NC1=O [Compound 70] (Oxazole2carbonyl-[dV]YC[Orn(iPr)]DVG[ΔPro][X5]C[3Pal]-NH2; disulfide 3-10)	0.107
CC(C)[C@@H]1NC(=O)[C@H](CC(=O)O)NC(=O)[C@H](CCCNC(=N)N)NC(=O)[C@@H](NC(=O)[C@H](Cc2ccc(O)cc2)NC(=O)[C@H](NC(=O)c2ccc(F)cc2)C(C)C)CSSC[C@@H](C(=O)N[C@@H](Cc2cccnc2)C(N)=O)NC(=O)[C@H](Cc2ccccc2)NC(=O)[C@@H]2CCCN2C(=O)CNC1=O [Compound 1] ({Benzoyl(4-F)}-[dV]YCRDVGPFC[3Pal]-NH2; disulfide 3-10)	0.052
CC(C)NCCC[C@@H]1NC(=O)[C@@H](NC(=O)[C@H](Cc2ccc(O)cc2)NC(=O)[C@H](NC(=O)c2ccccn2)C(C)C)CSSC[C@@H](C(=O)N[C@@H](Cc2cccnc2)C(N)=O)NC(=O)[C@H](Cc2ccc(CO)cc2)NC(=O)[C@@H]2CCCN2C(=O)CNC(=O)[C@H](C(C)C)NC(=O)[C@H](CC(=O)O)NC1=O [Compound 55] (Picolinoyl-[dV]YC[Orn(iPr)]DVGP[X5]C[3Pal]-NH2; disulfide 3-10)	0.137
CC(C)[C@@H]1NC(=O)[C@H](CC(=O)O)NC(=O)[C@H](CN)NC(=O)[C@@H](NC(=O)[C@H](Cc2ccc(O)cc2)NC(=O)[C@H](NC(=O)c2ccc(F)cc2)C(C)C)CSSC[C@@H](C(=O)N[C@@H](Cc2cccnc2)C(N)=O)NC(=O)[C@H](Cc2cccc(C(N)=O)c2)NC(=O)[C@@H]2CCCN2C(=O)CNC1=O [Compound 6] ({Benzoyl(4-F)}-[dV]YC[Dap]DVGP[Phe(3-CONH2)]C[3Pal]-NH2; disulfide 3-10)	0.101

Moving on to the next molecule.
q: Give the reported IC50 for this molecule. CC(C)[C@@H]1NC(=O)[C@H](CC(=O)O)NC(=O)[C@H](CCCNC(=N)N)NC(=O)[C@@H](NC(=O)[C@H](Cc2ccccc2C(N)=O)NC(=O)[C@H](NC(=O)c2ccncn2)C(C)C)CSSC[C@@H](C(=O)N[C@@H](Cc2cccnc2)C(N)=O)NC(=O)[C@H](Cc2cccc(CN)c2)NC(=O)[C@@H]2C=CCN2C(=O)CNC1=O [Compound 31] (X6-[dV][Phe(2-CONH2)]CRDVG[ΔPro][Phe(3-CH2NH2)]C[3Pal]-NH2; disulfide 3-10)
a: 0.046

----------
- target.entity: hCGRP receptor (CALCRL:RAMP1) (Homo sapiens, UniProt O60894+Q16602)
- Construct: host or cells: GeneBLAzer CALCRL:RAMP1-CRE-bla Freestyle 293F
- Sequence (Q16602 23-461): as the sequence (Q16602 23-461) above
- Sequence (O60894 27-148): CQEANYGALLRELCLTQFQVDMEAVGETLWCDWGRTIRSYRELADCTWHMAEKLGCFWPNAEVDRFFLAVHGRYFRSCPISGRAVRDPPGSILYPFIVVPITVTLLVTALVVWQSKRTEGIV
- test.name: CGRP receptor antagonist activity measured by cAMP assay (HTRF)
- Type: cell-based
- condition.description: % MPE: percent of the maximal possible effect; agonist human α-CGRP; read-out: hCGRP-R Efficacy Antag (%) Ave
Numbered stars: 1 amine (or outer) side, 2 acyl side, 3 side chain; on linkers, the order of the positions; unused ones are H or OH. Bridge positions count the residues as written; N and C are the ends. Square brackets hold non-standard residues; d marks the D form. Peptide text beside a SMILES is read from it. * marks the point of attachment. Phe(3-CH2NH2) = O=C([C@H](Cc1cccc(CN[*:3])c1)N[*:1])[*:2]; Phe(2-CONH2) = NC(=O)c1ccccc1C[C@H](N)C(=O)O; X5 = O=C([C@H](Cc1ccc(CO)cc1)N[*:1])[*:2]; Picolinoyl(5-F) = O=C(c1ccc(F)cn1)*; Orn(iPr) = CC(C)NCCC[C@H](N)C(=O)O; Benzoyl(4-F) = O=C(c1ccc(F)cc1)*; 3Pal = N[C@@H](Cc1cccnc1)C(=O)O; Picolinoyl = O=C(c1ccccn1)*; ΔPro = O=C(O)[C@@H]1C=CCN1
measured.property: Emax (%)
Return type: number; implicit unit %.

// solved cases for Emax follow
CC(C)[C@@H]1NC(=O)[C@H](CC(=O)O)NC(=O)[C@H](CCCNC(=N)N)NC(=O)[C@@H](NC(=O)[C@H](Cc2ccc(O)cc2)NC(=O)[C@H](NC(=O)c2ccc(F)cc2)C(C)C)CSSC[C@@H](C(=O)N[C@@H](Cc2cccnc2)C(N)=O)NC(=O)[C@H](Cc2ccccc2)NC(=O)[C@@H]2CCCN2C(=O)CNC1=O [Compound 1] ({Benzoyl(4-F)}-[dV]YCRDVGPFC[3Pal]-NH2; disulfide 3-10)	100
CC(C)NCCC[C@@H]1NC(=O)[C@@H](NC(=O)[C@H](Cc2ccccc2C(N)=O)NC(=O)[C@H](NC(=O)c2ccccn2)C(C)C)CSSC[C@@H](C(=O)N[C@@H](Cc2cccnc2)C(N)=O)NC(=O)[C@H](Cc2cccc(CN)c2)NC(=O)[C@@H]2C=CCN2C(=O)CNC(=O)[C@H](C(C)C)NC(=O)[C@H](CC(=O)O)NC1=O [Compound 54] (Picolinoyl-[dV][Phe(2-CONH2)]C[Orn(iPr)]DVG[ΔPro][Phe(3-CH2NH2)]C[3Pal]-NH2; disulfide 3-10)	100

Attention now turns to another entry.
q: Query Emax for CC(C)NCCC[C@@H]1NC(=O)[C@@H](NC(=O)[C@H](Cc2ccccc2C(N)=O)NC(=O)[C@H](NC(=O)c2ccc(F)cn2)C(C)C)CSSC[C@@H](C(=O)N[C@@H](Cc2cccnc2)C(N)=O)NC(=O)[C@H](Cc2ccc(CO)cc2)NC(=O)[C@@H]2C=CCN2C(=O)CNC(=O)[C@H](C(C)C)NC(=O)[C@H](CC(=O)O)NC1=O [Compound 63] ({Picolinoyl(5-F)}-[dV][Phe(2-CONH2)]C[Orn(iPr)]DVG[ΔPro][X5]C[3Pal]-NH2; disulfide 3-10)
a: 101

----------
Form field: IC50 (one value per entry).
- target.entity: hAM2 receptor (CALCRL:RAMP3) (Homo sapiens, UniProt O60896+Q16602)
- Construct: expressed in transfected cells; host or cells: GeneBLAzer CALCRL:RAMP3-CRE-bla Freestyle 293F
- test.name: AM2 receptor antagonist activity measured by cAMP assay (HTRF)
- Type: cell-based
- condition.description: GeneBLAzer CALCRL:RAMP3-CRE-bla Freestyle 293F cells; agonist human adrenomedullin; read-out: hAM2-R IC50 Ave
Numbered stars: 1 amine (or outer) side, 2 acyl side, 3 side chain; on linkers, the order of the positions; unused ones are H or OH. Bridge positions count the residues as written; N and C are the ends. Square brackets hold non-standard residues; d marks the D form. Peptide text beside a SMILES is read from it. * marks the point of attachment. Phe(4-NHCONH2) = NC(=O)Nc1ccc(C[C@H](N)C(=O)O)cc1; Phe(2-CONH2) = NC(=O)c1ccccc1C[C@H](N)C(=O)O; X5 = O=C([C@H](Cc1ccc(CO)cc1)N[*:1])[*:2]; Picolinoyl(5-F) = O=C(c1ccc(F)cn1)*; Orn(iPr) = CC(C)NCCC[C@H](N)C(=O)O; Oxazole2carbonyl = O=C(c1ncco1)*; 3Pal = N[C@@H](Cc1cccnc1)C(=O)O; ΔPro = O=C(O)[C@@H]1C=CCN1
The response must be a number in µM with no trailing unit.

CC(C)NCCC[C@@H]1NC(=O)[C@@H](NC(=O)[C@H](Cc2ccccc2C(N)=O)NC(=O)[C@H](NC(=O)c2ncco2)C(C)C)CSSC[C@@H](C(=O)N[C@@H](Cc2cccnc2)C(N)=O)NC(=O)[C@H](Cc2ccc(NC(N)=O)cc2)NC(=O)[C@@H]2C=CCN2C(=O)CNC(=O)[C@H](C(C)C)NC(=O)[C@H](CC(=O)O)NC1=O [Compound 60] (Oxazole2carbonyl-[dV][Phe(2-CONH2)]C[Orn(iPr)]DVG[ΔPro][Phe(4-NHCONH2)]C[3Pal]-NH2; disulfide 3-10)	0.444

# ---- query compound ----
q: Answer with the recorded IC50 for the compound listed here: CC(C)NCCC[C@@H]1NC(=O)[C@@H](NC(=O)[C@H](Cc2ccccc2C(N)=O)NC(=O)[C@H](NC(=O)c2ccc(F)cn2)C(C)C)CSSC[C@@H](C(=O)N[C@@H](Cc2cccnc2)C(N)=O)NC(=O)[C@H](Cc2ccc(CO)cc2)NC(=O)[C@@H]2C=CCN2C(=O)CNC(=O)[C@H](C(C)C)NC(=O)[C@H](CC(=O)O)NC1=O [Compound 63] ({Picolinoyl(5-F)}-[dV][Phe(2-CONH2)]C[Orn(iPr)]DVG[ΔPro][X5]C[3Pal]-NH2; disulfide 3-10)
a: 0.085
